// provenance: patent US11053204B2

system: kochia (Kochia scoparia); assay: Test A preemergence, visual injury rating; type: in vivo; conditions: 31 g ai/ha, 0 to 100 scale, 0 no effect, 100 complete control
property-name: Plant response rating, Kochia
Respond using a number only.

Exercise: What Plant response rating, Kochia value was documented for this compound, O=C(OCC(F)(F)C(F)(F)F)c1c(F)cccc1Oc1ncc(Br)cn1 ?
Key: 0

Exercise: What Plant response rating, Kochia value was documented for this compound, O=C(OCCC(F)(F)F)c1cc(Br)ccc1Oc1ncc(Cl)cn1 ?
Key: 0

Exercise: What Plant response rating, Kochia value was documented for this compound, FC(F)(F)COCc1c(Br)cccc1Oc1ncc(Cl)cn1 ?
Key: 20

Exercise: What Plant response rating, Kochia value was documented for this compound, O=C(OCCC(F)(F)F)c1c(Oc2ncc(Cl)cn2)cccc1C(F)(F)F ?
Key: 10

Exercise: What Plant response rating, Kochia value was documented for this compound, O=C(NCCC(F)(F)F)c1c(Br)cccc1Oc1ncc(Cl)cn1 ?
Key: 0

Exercise: What Plant response rating, Kochia value was documented for this compound, O=C(CCC(F)(F)F)c1c(Cl)cccc1Oc1ncc(Cl)cn1 ?
Key: 90

Exercise: What Plant response rating, Kochia value was documented for this compound, O=C(OCCC(F)(F)F)c1cc(C(F)(F)F)ccc1Oc1ncc(Cl)cn1 ?
Key: 0

Exercise: What Plant response rating, Kochia value was documented for this compound, FC(F)(F)CCCCc1c(Cl)cccc1Oc1ncc(Cl)cn1 ?
Key: 0

Exercise: What Plant response rating, Kochia value was documented for this compound, CCOc1cccc(Oc2ncc(Cl)cn2)c1C(=O)OCCC(F)(F)F ?
Key: 0

----------
system: velvetleaf (Abutilon theophrasti); assay: Test C postemergence, plant response rating; type: in vivo; conditions: 31 g ai/ha, scale 0 to 100
property-name: Plant response rating, Velvetleaf

Exercise: What Plant response rating, Velvetleaf value was documented for this compound, O=C(CCCCC(F)(F)F)c1c(Br)cccc1Oc1ncc(Cl)cn1 [Compound 82] ?
Key: 45

Exercise: What Plant response rating, Velvetleaf value was documented for this compound, O=C(CCCC(F)(F)F)c1c(Br)cccc1Oc1ncc(Cl)cn1 [Compound 77] ?
Key: 50

Exercise: What Plant response rating, Velvetleaf value was documented for this compound, CCCC(=O)c1c(Oc2ncc(Cl)cn2)cccc1C(F)(F)F [Compound 136] ?
Key: 50

Exercise: What Plant response rating, Velvetleaf value was documented for this compound, FC(F)(F)CCCc1c(Br)cccc1Oc1ncc(Cl)cn1 [Compound 89] ?
Key: 35

Exercise: What Plant response rating, Velvetleaf value was documented for this compound, O=C(CCC(F)(F)C(F)(F)F)c1c(Br)cccc1Oc1ncc(Cl)cn1 [Compound 110] ?
Key: 40

Exercise: What Plant response rating, Velvetleaf value was documented for this compound, O=C(CCCC(F)(F)F)c1c(Oc2ncc(Cl)cn2)cccc1C(F)(F)F [Compound 125] ?
Key: 35

Exercise: What Plant response rating, Velvetleaf value was documented for this compound, FC(F)(F)CCCCc1c(Cl)cccc1Oc1ncc(Cl)cn1 [Compound 137] ?
Key: 15

----------
test system: barnyardgrass (Echinochloa crus-galli); assay: Test C preemergence, plant response rating; format: in vivo; conditions: Preemergence; 16 g ai/ha; scale 0 to 100
property-name: Plant response rating, Barnyardgrass
Respond using a number only.

Exercise: What Plant response rating, Barnyardgrass value was documented for this compound, O=C(CCCCC(F)(F)F)c1c(Br)cccc1Oc1ncc(Cl)cn1 ?
Key: 5

Exercise: What Plant response rating, Barnyardgrass value was documented for this compound, CCCCC(=O)c1c(Br)cccc1Oc1ncc(Cl)cn1 ?
Key: 5

Exercise: What Plant response rating, Barnyardgrass value was documented for this compound, N#CC(CCCC(F)(F)F)c1ccccc1Oc1ncc(Cl)cn1 (stereo not drawn) ?
Key: 10

Exercise: What Plant response rating, Barnyardgrass value was documented for this compound, FC(F)(F)CCCc1c(Br)cccc1Oc1ncc(Cl)cn1 ?
Key: 5

Exercise: What Plant response rating, Barnyardgrass value was documented for this compound, O=C(CCC(F)(F)F)c1c(Br)cccc1Oc1ncc(Cl)cn1 ?
Key: 35

Exercise: What Plant response rating, Barnyardgrass value was documented for this compound, O=C(OCCC(F)(F)F)c1c(Br)cccc1Oc1ncc(Br)cn1 ?
Key: 20
